Origin of values: patent US10815275B2

procedure.summary: Metabolic stability in human liver S9 fraction, HPLC
Assay type: in vitro ADME
condition.description: human, s9, pH 7.4
Non-standard residues stand in square brackets, D forms with d. Residues, ends and D or L forms follow the SMILES beside them. Nspe = C[C@H](NCC(=O)O)c1ccccc1; Nphe = O=C(O)CNCc1ccccc1; Nlys = NCCCCNCC(=O)O
measured.property: remaining at 24 h, 11.5 μM

GET /values?readout=remaining at 24 h, 11.5 μM&item= C[C@@H](c1ccccc1)N(CC(=O)N(CCCCN)CC(=O)N(CC(=O)N(CC(=O)N(CCCCN)CC(=O)N(CC(=O)N(CC(=O)N(CCCCN)CC(=O)N(CC(=O)N(CC(N)=O)Cc1ccccc1)Cc1ccccc1)Cc1ccccc1)Cc1ccccc1)Cc1ccccc1)Cc1ccccc1)C(=O)CN(Cc1ccccc1)C(=O)CNCCCCN [compound 4] (H-[Nlys][Nphe][Nspe][Nlys][Nphe][Nphe][Nlys][Nphe][Nphe][Nlys][Nphe][Nphe]-NH2) 74%

----------
System: red blood cells
procedure.summary: Hemolytic activity on red blood cells
Type: cell-based, mouse
Non-standard residues stand in square brackets, D forms with d. Residues, ends and D or L forms follow the SMILES beside them. Nspe = C[C@H](NCC(=O)O)c1ccccc1; Nphe = O=C(O)CNCc1ccccc1; Nlys = NCCCCNCC(=O)O
Entries and their measured HD50 follow.

Consider the worked cases shown below.
- molecule: "C[C@@H](c1ccccc1)N(CC(=O)N(CCCCN)CC(=O)N(CC(=O)N(CC(N)=O)Cc1ccccc1)Cc1ccccc1)C(=O)CN(Cc1ccccc1)C(=O)CN(CCCCN)C(=O)CN(Cc1ccccc1)C(=O)CN(Cc1ccccc1)C(=O)CN(CCCCN)C(=O)CN(Cc1ccccc1)C(=O)CN(Cc1ccccc1)C(=O)CNCCCCN [compound 8] (H-[Nlys][Nphe][Nphe][Nlys][Nphe][Nphe][Nlys][Nphe][Nspe][Nlys][Nphe][Nphe]-NH2)"
  measured.property: "HD50"
  result: "> 200"
- molecule: "NCCCCNCC(=O)N(CC(=O)N(CC(=O)N(CCCCN)CC(=O)N(CC(=O)N(CC(=O)N(CCCCN)CC(=O)N(CC(=O)N(CC(=O)N(CCCCN)CC(=O)N(CC(=O)N(CC(N)=O)Cc1ccccc1)Cc1ccccc1)Cc1ccccc1)Cc1ccccc1)Cc1ccccc1)Cc1ccccc1)Cc1ccccc1)Cc1ccccc1 [compound 2] (H-[Nlys][Nphe][Nphe][Nlys][Nphe][Nphe][Nlys][Nphe][Nphe][Nlys][Nphe][Nphe]-NH2)"
  measured.property: "HD50"
  result: ">200/>200"

Reported HD50 for C[C@@H](c1ccccc1)N(CC(=O)N(CCCCN)CC(=O)N(CC(=O)N(CC(=O)N(CCCCN)CC(=O)N(CC(=O)N(CC(=O)N(CCCCN)CC(=O)N(CC(=O)N(CC(N)=O)Cc1ccccc1)Cc1ccccc1)Cc1ccccc1)Cc1ccccc1)Cc1ccccc1)Cc1ccccc1)C(=O)CN(C(=O)CNCCCCN)[C@@H](C)c1ccccc1 [compound 17] (H-[Nlys][Nspe][Nspe][Nlys][Nphe][Nphe][Nlys][Nphe][Nphe][Nlys][Nphe][Nphe]-NH2) : what is it? > 200

----------
Tested on: red blood cells
procedure.summary: Hemolytic activity on red blood cells
Type: cell-based, mouse
Non-standard residues stand in square brackets, D forms with d. Residues, ends and D or L forms follow the SMILES beside them. Nspe = C[C@H](NCC(=O)O)c1ccccc1; Nphe = O=C(O)CNCc1ccccc1; Nlys = NCCCCNCC(=O)O
measured.property: HD50

- compound: "C[C@@H](c1ccccc1)N(CC(=O)N(CC(N)=O)Cc1ccccc1)C(=O)CN(CCCCN)C(=O)CN(Cc1ccccc1)C(=O)CN(Cc1ccccc1)C(=O)CN(CCCCN)C(=O)CN(Cc1ccccc1)C(=O)CN(Cc1ccccc1)C(=O)CN(CCCCN)C(=O)CN(Cc1ccccc1)C(=O)CN(Cc1ccccc1)C(=O)CNCCCCN [compound 9] (H-[Nlys][Nphe][Nphe][Nlys][Nphe][Nphe][Nlys][Nphe][Nphe][Nlys][Nspe][Nphe]-NH2)"
  measured.property: "HD50"
  result: "> 200"

Consider the compound shown here: C[C@@H](c1ccc(F)cc1)N(CC(N)=O)C(=O)CN(C(=O)CN(CCCCN)C(=O)CN(C(=O)CN(C(=O)CN(CCCCN)C(=O)CN(C(=O)CN(C(=O)CN(CCCCN)C(=O)CN(C(=O)CN(C(=O)CNCCCCN)[C@@H](C)c1ccc(F)cc1)[C@@H](C)c1ccc(F)cc1)[C@@H](C)c1ccc(F)cc1)[C@@H](C)c1ccc(F)cc1)[C@@H](C)c1ccc(F)cc1)[C@@H](C)c1ccc(F)cc1)[C@@H](C)c1ccc(F)cc1 What is its recorded HD50? <6.25/<6.25

Entry C[C@@H](c1ccccc1)N(CC(N)=O)C(=O)CN(Cc1ccccc1)C(=O)CN(CCCCN)C(=O)CN(Cc1ccccc1)C(=O)CN(Cc1ccccc1)C(=O)CN(CCCCN)C(=O)CN(Cc1ccccc1)C(=O)CN(Cc1ccccc1)C(=O)CN(CCCCN)C(=O)CN(C(=O)CN(C(=O)CNCCCCN)[C@@H](C)c1ccccc1)[C@@H](C)c1ccccc1 please > 200

Another compound: C[C@@H](c1ccccc1)N(CC(=O)N(CCCCN)CC(=O)N(CC(=O)N(CC(=O)N(CCCCN)CC(=O)N(CC(=O)N(CC(=O)N(CCCCN)CC(=O)N(CC(=O)N(CC(N)=O)Cc1ccccc1)Cc1ccccc1)Cc1ccccc1)Cc1ccccc1)Cc1ccccc1)Cc1ccccc1)C(=O)CN(Cc1ccccc1)C(=O)CNCCCCN [compound 4] (H-[Nlys][Nphe][Nspe][Nlys][Nphe][Nphe][Nlys][Nphe][Nphe][Nlys][Nphe][Nphe]-NH2) > 200

Check C[C@@H](c1ccccc1)N(CC(=O)N(CCCCN)CC(=O)N(CC(=O)N(CC(=O)N(CCCCN)CC(=O)N(CC(=O)N(CC(N)=O)Cc1ccccc1)Cc1ccccc1)[C@@H](C)c1ccccc1)[C@@H](C)c1ccccc1)C(=O)CN(Cc1ccccc1)C(=O)CN(CCCCN)C(=O)CN(Cc1ccccc1)C(=O)CN(Cc1ccccc1)C(=O)CNCCCCN [compound 15] (H-[Nlys][Nphe][Nphe][Nlys][Nphe][Nspe][Nlys][Nspe][Nspe][Nlys][Nphe][Nphe]-NH2) too. 155.8

----------
System: red blood cells
procedure.summary: Hemolytic activity on red blood cells
Type: cell-based, mouse
Non-standard residues stand in square brackets, D forms with d. Residues, ends and D or L forms follow the SMILES beside them. Nspe = C[C@H](NCC(=O)O)c1ccccc1; Nphe = O=C(O)CNCc1ccccc1; Nlys = NCCCCNCC(=O)O
Catalogue of HD10 values
// keep it numeric: no unit symbol after the value

- compound: "C[C@@H](c1ccccc1)N(CC(=O)N(CC(=O)N(CCCCN)CC(=O)N(CC(=O)N(CC(=O)N(CCCCN)CC(=O)N(CC(=O)N(CC(=O)N(CCCCN)CC(=O)N(CC(=O)N(CC(N)=O)Cc1ccccc1)Cc1ccccc1)Cc1ccccc1)Cc1ccccc1)Cc1ccccc1)Cc1ccccc1)Cc1ccccc1)C(=O)CNCCCCN [compound 3] (H-[Nlys][Nspe][Nphe][Nlys][Nphe][Nphe][Nlys][Nphe][Nphe][Nlys][Nphe][Nphe]-NH2)"
  numeric.readout: 112.7

What measured HD10 goes with C[C@@H](c1ccccc1)N(CC(=O)N(CCCCN)CC(=O)N(CC(=O)N(CC(=O)N(CCCCN)CC(=O)N(CC(=O)N(CC(=O)N(CCCCN)CC(=O)N(CC(=O)N(CC(N)=O)Cc1ccccc1)Cc1ccccc1)Cc1ccccc1)Cc1ccccc1)Cc1ccccc1)Cc1ccccc1)C(=O)CN(Cc1ccccc1)C(=O)CNCCCCN [compound 4] (H-[Nlys][Nphe][Nspe][Nlys][Nphe][Nphe][Nlys][Nphe][Nphe][Nlys][Nphe][Nphe]-NH2) ? 89.6

----------
System: MRCS cell line
procedure.summary: in vitro
Format: cell-based
condition.description: concentration indicating 50% survival, 24 h, MTS; read-out: LC50 (the source's name)
No end group written: not given here.
measured.property: CC50 (µM)
Kindly answer with a numeric value in µM, unit omitted.

Look at this substance and give its reported CC50. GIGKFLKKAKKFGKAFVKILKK-NH2 [Pexiganan, reference compound] 21.2

----------
System: S. epidermidis (ET-024 MRSA)
procedure.summary: MIC in multidrug-resistant bacteria panel, modified microdilution
Assay type: cell-based
condition.description: overnight, 37° C.
Non-standard residues stand in square brackets, D forms with d. Residues, ends and D or L forms follow the SMILES beside them. Nspe = C[C@H](NCC(=O)O)c1ccccc1; Nphe = O=C(O)CNCc1ccccc1; Nlys = NCCCCNCC(=O)O
Measured minimum inhibitory concentration S. epidermidis (ET-024 MRSA) by item

Use these answered entries as a reference point.
- compound: "C[C@@H](c1ccccc1)N(CC(N)=O)C(=O)CN(C(=O)CN(CCCCN)C(=O)CN(C(=O)CN(C(=O)CN(CCCCN)C(=O)CN(C(=O)CN(C(=O)CN(CCCCN)C(=O)CN(C(=O)CN(C(=O)CNCCCCN)[C@@H](C)c1ccccc1)[C@@H](C)c1ccccc1)[C@@H](C)c1ccccc1)[C@@H](C)c1ccccc1)[C@@H](C)c1ccccc1)[C@@H](C)c1ccccc1)[C@@H](C)c1ccccc1 [compound 1] (H-[Nlys][Nspe][Nspe][Nlys][Nspe][Nspe][Nlys][Nspe][Nspe][Nlys][Nspe][Nspe]-NH2)"
  result: "<0.8 to 0.8"
- compound: "C[C@@H](c1ccccc1)N(CC(N)=O)C(=O)CN(Cc1ccccc1)C(=O)CN(CCCCN)C(=O)CN(Cc1ccccc1)C(=O)CN(Cc1ccccc1)C(=O)CN(CCCCN)C(=O)CN(Cc1ccccc1)C(=O)CN(Cc1ccccc1)C(=O)CN(CCCCN)C(=O)CN(C(=O)CN(C(=O)CNCCCCN)[C@@H](C)c1ccccc1)[C@@H](C)c1ccccc1"
  result: "<0.8 to 0.8"

Consider the record given below.
What measured minimum inhibitory concentration S. epidermidis (ET-024 MRSA) goes with C[C@@H](c1ccccc1)N(CC(=O)N(CCCCN)CC(=O)N(CC(=O)N(CC(=O)N(CCCCN)CC(=O)N(CC(=O)N(CC(N)=O)Cc1ccccc1)Cc1ccccc1)[C@@H](C)c1ccccc1)[C@@H](C)c1ccccc1)C(=O)CN(Cc1ccccc1)C(=O)CN(CCCCN)C(=O)CN(Cc1ccccc1)C(=O)CN(Cc1ccccc1)C(=O)CNCCCCN [compound 15] (H-[Nlys][Nphe][Nphe][Nlys][Nphe][Nspe][Nlys][Nspe][Nspe][Nlys][Nphe][Nphe]-NH2) ? <0.8 to 0.8
